Hey, just so you know, these numbers are from paper PMC11432405.

- Assay Notes: rotarod test (acute neurological toxicity, motor coordination)
- Format: in vivo
- Assay Setup: male, CD-1 (albino Swiss), mouse, in vivo, ip, mice i.p.
Assay Metric: TD50 at 0.5 h

| Compound | Assay Metric | Recorded Value |
| --- | --- | --- |
| CC(C(=O)NCc1ccc(OCc2cccc(OC(F)(F)F)c2)cc1)N1C(=O)CCC1=O (stereo not drawn) [Compound 16] | TD50 at 0.5 h | > 300 mg/kg |

Ask: Please report the recorded TD50 at 0.5 h for CC(C(=O)NCc1ccc(OCc2ccc(OC(F)(F)F)cc2)cc1)N1C(=O)CCC1=O (stereo not drawn) [Compound 17] .
Reply: > 300 mg/kg

Ask: Which value of TD50 at 0.5 h has been reported for CC(C(=O)NCc1ccc(OCc2cccc(C(F)(F)F)c2)cc1)N1C(=O)CCC1=O (stereo not drawn) [Compound 13] in the records?
Reply: > 300 mg/kg

* * *

Overview of reported inhibition at 1 µM across a group of molecules:
- Target Under Test: human recombinant MAO-B (Homo sapiens)
- Construct: purchased Sigma Aldrich
- Sequence (P27338 whole entry): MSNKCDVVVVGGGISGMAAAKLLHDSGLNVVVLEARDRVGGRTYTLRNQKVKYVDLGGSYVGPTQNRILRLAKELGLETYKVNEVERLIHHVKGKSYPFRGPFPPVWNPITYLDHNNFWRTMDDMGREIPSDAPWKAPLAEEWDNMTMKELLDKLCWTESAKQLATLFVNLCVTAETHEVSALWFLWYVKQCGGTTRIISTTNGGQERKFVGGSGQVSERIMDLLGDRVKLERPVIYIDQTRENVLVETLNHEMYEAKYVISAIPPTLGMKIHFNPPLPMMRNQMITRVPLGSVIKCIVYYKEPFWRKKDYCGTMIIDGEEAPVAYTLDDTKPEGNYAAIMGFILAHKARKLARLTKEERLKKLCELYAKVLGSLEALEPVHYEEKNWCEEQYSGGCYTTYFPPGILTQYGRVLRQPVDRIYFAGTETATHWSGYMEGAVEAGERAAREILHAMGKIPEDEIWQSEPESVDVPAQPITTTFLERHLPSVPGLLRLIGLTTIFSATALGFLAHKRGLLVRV
- Assay Notes: fluorometric monoamine oxidase B inhibition assay
- Assay type: biochemical
- Assay Setup: read-out: % inhibition MAO-B (1 µM), mean of two independent experiments
Be sure to follow the number with its unit.

Consider the worked cases shown below.
| Molecule | Recorded Value |
| --- | --- |
| CC(C(=O)NCc1ccc(OCc2cccc(C(F)(F)F)c2)cc1)N1CCCC1=O (stereo not drawn) [Compound 38] | 2% |
| CC(C(=O)NCc1ccc(OCc2cccc(C(F)(F)F)c2)cc1)N1C(=O)CCC1=O (stereo not drawn) [Compound 13] | 0% |
| Cc1ccccc1COc1ccc(CNC(=O)C(C)N2C(=O)CCC2=O)cc1 (stereo not drawn) [Compound 18] | 0% |
| Cc1cccc(COc2ccc(CNC(=O)C(C)N3C(=O)CCC3=O)cc2)c1 (stereo not drawn) [Compound 19] | 0% |
| CC(C(=O)NCc1ccc(OCc2ccc(OC(F)(F)F)cc2)cc1)N1CCCC1=O (stereo not drawn) [Compound 39] | 0% |

Proceed to the following item.
Ask: If you can, please state the reported inhibition at 1 µM value of CC(C(=O)NCc1ccc(OCc2ccccc2C(F)(F)F)cc1)N1C(=O)CCC1=O (stereo not drawn) [Compound 12] .
Reply: 0%

* * *

Assay Metric: melting point

The cases that follow already have their melting point on record.
| Molecule | Recorded Value |
| --- | --- |
| CC(C(=O)NCc1cccc(OCc2ccccc2)c1)N1C(=O)CCC1=O (centres unmarked) | 105.3 to 106.1 °C |
| CC(C)(C(=O)NCc1ccc(OCc2ccccc2)cc1)N1C(=O)CCC1=O | 170.3 to 171.2 °C |
| CC(C(=O)NCc1ccc(OCc2ccccc2)cc1)N1C(=O)CCC1=O (centres unmarked) | 102.9 to 103.4 °C |
| CC(C(=O)NCc1ccc(OCc2ccccc2C(F)(F)F)cc1)N1C(=O)CCC1=O (centres unmarked) | 122.9 to 123.4 °C |

Turning now to a further record.
Ask: Looking for the measured melting point of CC(C(=O)NCc1ccc(OCc2ccc(OC(F)(F)F)cc2)cc1)N1CCCC1=O (centres unmarked) , can you help?
Reply: 103.4 to 103.9 °C
